- target: PDE4D (Homo sapiens)
- Construct: PDE4D: The catalytic domain of human PDE4B from S3 16-V692; His6 (N); thrombin cleavage site (N); made in house; host or cells: E. coli
- Sequence (Q08499 380-756): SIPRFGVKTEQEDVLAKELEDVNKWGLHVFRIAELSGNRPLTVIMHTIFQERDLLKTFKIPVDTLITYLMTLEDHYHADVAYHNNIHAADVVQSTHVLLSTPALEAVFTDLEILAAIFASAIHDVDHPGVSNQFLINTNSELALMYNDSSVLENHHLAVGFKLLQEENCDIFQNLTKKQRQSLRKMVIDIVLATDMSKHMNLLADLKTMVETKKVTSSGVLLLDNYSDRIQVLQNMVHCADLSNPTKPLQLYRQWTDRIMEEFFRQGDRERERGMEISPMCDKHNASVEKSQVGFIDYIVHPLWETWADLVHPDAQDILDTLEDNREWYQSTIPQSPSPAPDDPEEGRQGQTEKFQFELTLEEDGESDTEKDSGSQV
- protocol.notes: PDE4 IC50 determination by Scintillation Proximity Assay, PDE4D
- Assay type: biochemical
- recorded.conditions: Table 1B, Formula I compounds; read-out: IC50 PDE4D
assay.metric: IC50

N#Cc1c(Nc2ccc(Cl)c(C(F)(F)F)c2)sc(C(=O)c2ccccc2)c1N: < 10 µM
COc1ccc(C(=O)c2sc(Nc3ccc4c(c3)CCC4)c(C#N)c2N)c(OC)c1: < 10 µM
CCOC(=O)c1c(NC2CCCC2)sc(C(=O)c2cc(-c3ccccc3)no2)c1N: < 10 µM
COC(=O)C(CCSC)Nc1sc(C(=O)c2cc(OC)ccc2OC)c(N)c1C#N (stereo not drawn): > 10 µM
CCC(C)Nc1sc(C(=O)c2ccc(Oc3ccccc3)cc2)c(N)c1C#N (stereo not drawn): < 10 µM

Query string: Query (compound): N#Cc1c(NC2CCCC2)sc(C(=O)c2cc(-c3ccc(Cl)c(Cl)c3)no2)c1N ; field requested: IC50
Result string: > 10 µM

Query string: Repeat with N#Cc1c(Nc2ccccc2)sc(C(=O)c2ccc(-c3ccccc3)cc2)c1N
Result string: < 10 µM

Query string: Repeat with CCOC(=O)c1cc(C(=O)c2sc(NC3CCOC3=O)c(C#N)c2N)on1 (stereo not drawn)
Result string: > 10 µM

Query string: Repeat with COc1ccc(CNc2sc(C(=O)c3ccccn3)c(N)c2C#N)cc1OC
Result string: < 10 µM

Query string: Repeat with COc1ccc(C(=O)c2sc(Nc3ccc(C(=O)NC4CCOC4=O)cc3)c(C#N)c2N)c(OC)c1 (stereo not drawn)
Result string: > 10 µM

Query string: Repeat with N#Cc1c(Nc2ccc(Cl)cc2)sc(C(=O)c2sccc2Cl)c1N
Result string: < 10 µM

Query string: Repeat with CC1C2=C(CC(C)(C)CC2=O)Nc2sc(C(N)=O)c(N)c21 (stereo not drawn)
Result string: > 10 µM

Query string: Repeat with CC(C)(C)Nc1sc(C(=O)c2cc(-c3ccccc3)no2)c(N)c1C#N
Result string: < 10 µM

Query string: Repeat with CCOC(=O)c1cc(C(=O)c2sc(Nc3cccc(SC)c3)c(C#N)c2N)on1
Result string: < 10 µM

###

- target: PDE4D (Homo sapiens)
- Construct: PDE4D: The catalytic domain of human PDE4B from S3 16-V692; His6 (N); thrombin cleavage site (N); made in house; host or cells: E. coli
- protocol.notes: PDE4 IC50 determination by Scintillation Proximity Assay, PDE4D
- Type: biochemical
- recorded.conditions: Table 1B, Formula I compounds; read-out: IC50 PDE4D
assay.metric: IC50

// known answers, use as guide
Cc1onc(-c2ccccc2)c1C(=O)c1sc(NC2CCOC2=O)c(C#N)c1N (stereo not shown): > 10 µM
CCc1ccccc1Nc1sc(C(=O)c2ccccn2)c(N)c1C#N: > 10 µM
COC(=O)c1ccccc1Nc1sc(C(=O)c2c(-c3ccccc3)noc2C)c(N)c1C#N: < 10 µM
N#Cc1c(NCCN2CCCCC2)sc(C(=O)c2csc3ccccc23)c1N: > 10 µM
CCOC(=O)c1cc(C(=O)c2sc(NC(=O)c3ccccc3C)c(C#N)c2N)on1: > 10 µM

Query string: Query (compound): CC(C)Nc1sc(C(=O)c2cc(-c3ccc(Cl)c(Cl)c3)no2)c(N)c1C#N ; field requested: IC50
Result string: > 10 µM

Query string: Repeat with Cc1c(C(=O)c2sc(Nc3ccccc3F)c(C#N)c2N)cnn1-c1ccccc1
Result string: < 10 µM

Query string: Repeat with N#Cc1c(NC2CCCC2)sc(C(=O)c2ccccn2)c1N
Result string: < 10 µM

Query string: Repeat with Cc1cc(=O)[nH]c2sc(C(=O)c3ccc(Cl)c(Cl)c3)c(N)c12
Result string: > 10 µM

Query string: Repeat with COc1ccc(CNc2sc(C(=O)c3ccc(-c4ccccn4)s3)c(N)c2C#N)cc1OC
Result string: < 10 µM

Query string: Repeat with N#Cc1c(Nc2ccc(C(=O)NC3CCOC3=O)cc2)sc(C(=O)c2ccccc2Cl)c1N (stereo not shown)
Result string: < 10 µM

Query string: Repeat with N#Cc1c(Nc2ccco2)sc(C(=O)c2cc(-c3ccccc3)no2)c1N
Result string: > 10 µM

Query string: Repeat with CC(C)CNc1sc(C(=O)c2ccc(Oc3ccccc3)cc2)c(N)c1C#N
Result string: < 10 µM

Query string: Repeat with COc1ccc(C(=O)c2sc(NC3CCCC3)c(C#N)c2N)cc1
Result string: < 10 µM

Query string: Repeat with Cc1c(C(=O)c2sc(Nc3ccc(C(=O)NC4CCOC4=O)cc3)c(C#N)c2N)cnn1-c1ccccc1 (stereo not shown)
Result string: < 10 µM

Query string: Repeat with N#Cc1cccc(Nc2sc(C(=O)c3ccccn3)c(N)c2C#N)c1
Result string: > 10 µM

Query string: Repeat with N#Cc1c(NC2CCCC2)sc(C(=O)c2cc(-c3ccc(Cl)cc3)no2)c1N
Result string: > 10 µM

Query string: Repeat with COc1ccc(C(=O)c2sc(Nc3ccc(Cl)cc3)c(C#N)c2N)cc1
Result string: < 10 µM

Query string: Repeat with CCC(C)Nc1sc(C(=O)c2cc(-c3ccc(Cl)c(Cl)c3)no2)c(N)c1C#N (stereo not shown)
Result string: > 10 µM

Query string: Repeat with N#Cc1c(NC2CCOC2=O)sc(C(=O)c2ccccc2Cl)c1N (stereo not shown)
Result string: > 10 µM

Query string: Repeat with COc1ccc(C(=O)c2sc(Nc3cccc(C#N)c3)c(C#N)c2N)c(OC)c1
Result string: < 10 µM

Query string: Repeat with Cc1ccc(C(=O)c2sc(Nc3ccc(C(=O)NC4CCOC4=O)cc3)c(C#N)c2N)c(C)c1 (stereo not shown)
Result string: < 10 µM

Query string: Repeat with CC(C)CNc1sc(C(=O)c2cc(-c3ccc(Cl)c(Cl)c3)no2)c(N)c1C#N
Result string: > 10 µM

Query string: Repeat with Cc1c(C(=O)c2sc(NC3CCCC3)c(C#N)c2N)cnn1-c1ccccc1
Result string: < 10 µM

Query string: Repeat with Cc1ccc(C(=O)c2sc(NC(=O)c3ccccc3C)c(C#N)c2N)c(C)c1
Result string: < 10 µM
